system: HS 578T breast; experiment: NCI tumour cell line growth inhibition, 48 h
attributeMeasured: TGI (µM)
Just the number please, in µM, no unit attached.

{"compound": "CN1CCC(CN2c3ccccc3Sc3ccccc32)C1 (stereo not drawn)", "systemUnderTest": "HS 578T breast", "assayValue": 36.7}

Exercise: Note TGI for the compound shown: CC(=O)/C(=C\c1c(-c2ccccc2)[nH]c2ccccc12)S(C)(=O)=O
Solution: 4.88

Exercise: Note TGI for the compound shown: Nc1c(C(=O)N/N=C/c2ccco2)cnn1-c1ccnc2c(C(F)(F)F)cccc12
Solution: 89.1

Exercise: Note TGI for the compound shown: Oc1ccc2c(c1)OCC1(O)Cc3cc(O)c(O)cc3C21 (stereo not drawn)
Solution: 46.9

Hey, just so you know, these numbers are from PubChem BioAssay (NCI).
